# test_details: Lipophilicity, logP of the compound
# experimental_conditions: octanol/water
endpoint_label: logP

{"structure_smiles_string": "CC(C)c1c(NC(=O)Nc2cnc(-n3nccn3)c(Cl)c2)cnc2cc(Cl)nn12", "endpoint_label": "logP", "readout_number": 4}
{"structure_smiles_string": "CO[C@@H](C)c1c(NC(=O)Nc2cnc(-n3nccn3)c(Cl)c2)cnc2cc(Cl)nn12", "endpoint_label": "logP", "readout_number": 3.4}
{"structure_smiles_string": "O=C(Nc1cnc(-n2nccn2)c(Cl)c1)Nc1cnc2cc(Cl)nn2c1C1CCOCC1", "endpoint_label": "logP", "readout_number": 3}
{"structure_smiles_string": "O=C(Nc1cnc(-n2nccn2)c(Cl)c1)Nc1cnc2cc(Cl)nn2c1C1CC1", "endpoint_label": "logP", "readout_number": 3.2}
{"structure_smiles_string": "COC[C@@H](C)c1c(NC(=O)Nc2cnc(-n3nccn3)c(Cl)c2)cnc2cc(Cl)nn12", "endpoint_label": "logP", "readout_number": 3.4}
{"structure_smiles_string": "COCc1c(NC(=O)Nc2cnc(-n3nccn3)c(Cl)c2)cnc2cc(Cl)nn12", "endpoint_label": "logP", "readout_number": 3}
{"structure_smiles_string": "COC[C@H](C)c1c(NC(=O)Nc2cnc(-n3nccn3)c(Cl)c2)cnc2cc(Cl)nn12", "endpoint_label": "logP", "readout_number": 3.4}

----------
# test_details: Cmax in blood of OFA rat model of T-cell dependent B cell response at 3 mg/kg, po QD for 4 days starting 2 days prior to immunization and measured after 3 hrs
# Assay type: ADME, organism-based
# Set-up: route oral, dose 3 mg/kg, time 4 day
endpoint_label: Cmax (nM)
# value in nM; strip the unit string

QUERY: Param item = `CO[C@@H](C)c1c(NC(=O)Nc2cnc(-n3nccn3)c(Cl)c2)cnc2cc(Cl)nn12` ; retrieve measured Cmax.
RESULT: 2300

----------
# test_details: Cmax in blood of OFA rat model of T-cell dependent B cell response at 3 mg/kg, po BID for 4 days starting 2 days prior to immunization and measured after 14 hrs
# Format: ADME, organism-based
# Set-up: route oral, dose 3 mg/kg, time 4 day
endpoint_label: Cmax (nM)
# value in nM; strip the unit string

QUERY: Param item = `CC(C)c1c(NC(=O)Nc2cnc(-n3nccn3)c(Cl)c2)cnc2cc(Cl)nn12` ; retrieve measured Cmax.
RESULT: 400

----------
# test_details: Cmax in Sprague-Dawley rat at 3 mg/kg, po
# Format: ADME, organism-based
# Design: route oral, dose 3 mg/kg
# experimental_conditions: in vivo
endpoint_label: Cmax (nM)

{"structure_smiles_string": "CO[C@@H](C)c1c(NC(=O)Nc2ccnc(C(F)(F)F)c2)cnc2cc(Cl)nn12", "endpoint_label": "Cmax", "unit_of_measurement": "nM", "readout_number": 700}
{"structure_smiles_string": "CO[C@@H](C)c1c(NC(=O)Nc2cnc(-n3nccn3)c(Cl)c2)cnc2cc(Cl)nn12", "endpoint_label": "Cmax", "unit_of_measurement": "nM", "readout_number": 700}

----------
# target_system: Cathepsin S (Homo sapiens)
# Sequence (P25774 whole entry): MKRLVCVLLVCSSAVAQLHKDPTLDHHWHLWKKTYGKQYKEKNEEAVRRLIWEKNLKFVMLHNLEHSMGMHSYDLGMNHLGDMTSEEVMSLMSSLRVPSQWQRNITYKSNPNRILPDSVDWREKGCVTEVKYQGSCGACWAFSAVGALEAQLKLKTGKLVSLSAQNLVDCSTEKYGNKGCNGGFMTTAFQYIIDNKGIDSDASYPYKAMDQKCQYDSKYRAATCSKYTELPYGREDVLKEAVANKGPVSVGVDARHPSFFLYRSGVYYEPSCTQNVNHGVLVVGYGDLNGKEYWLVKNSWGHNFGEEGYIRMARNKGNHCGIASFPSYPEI
endpoint_label: IC50

QUERY: Param item = `CO[C@@H](C)c1c(NC(=O)Nc2cnc(-n3nccn3)c(Cl)c2)cnc2cc(Cl)nn12` ; retrieve measured IC50.
RESULT: > 100 µM

----------
# test_details: Intrinsic clearance in rat liver microsomes
# Format: ADME, Microsome
# experimental_conditions: read-out: CLH
endpoint_label: microsomal CLint (µL/min/mg)

{"structure_smiles_string": "O=C(Nc1cnc(-n2nccn2)c(Cl)c1)Nc1cnc2cc(Cl)nn2c1C1CC1", "endpoint_label": "microsomal CLint", "readout_number": 50.4}
{"structure_smiles_string": "COC[C@H](C)c1c(NC(=O)Nc2cnc(-n3nccn3)c(Cl)c2)cnc2cc(Cl)nn12", "endpoint_label": "microsomal CLint", "readout_number": 60.9}

----------
# target_system: Procathepsin L (Homo sapiens)
# Sequence (P07711 whole entry): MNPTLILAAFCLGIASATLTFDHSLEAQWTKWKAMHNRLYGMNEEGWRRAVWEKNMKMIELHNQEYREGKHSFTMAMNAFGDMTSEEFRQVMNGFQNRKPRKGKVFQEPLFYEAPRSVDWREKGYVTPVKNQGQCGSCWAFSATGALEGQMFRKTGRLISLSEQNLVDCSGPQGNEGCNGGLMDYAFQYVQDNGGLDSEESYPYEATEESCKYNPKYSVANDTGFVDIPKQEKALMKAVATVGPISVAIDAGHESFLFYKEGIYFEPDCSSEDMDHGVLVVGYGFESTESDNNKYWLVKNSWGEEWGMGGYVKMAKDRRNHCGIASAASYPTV
endpoint_label: IC50

QUERY: Provide the documented IC50 with Procathepsin L (Homo sapiens) as the system for `CO[C@@H](C)c1c(NC(=O)Nc2cnc(-n3nccn3)c(Cl)c2)cnc2cc(Cl)nn12`
RESULT: > 100 µM

----------
# test_details: Protein binding in human plasma
# Format: ADME, cell-free
# experimental_conditions: read-out: PPB (converted)
endpoint_label: fraction unbound

(A) COCc1c(NC(=O)Nc2cnc(-n3nccn3)c(Cl)c2)cnc2cc(Cl)nn12
(B) CO[C@@H](C)c1c(NC(=O)Nc2ccnc(C(F)(F)F)c2)cnc2cc(Cl)nn12
QUERY: In the pair A and B , the larger recorded fraction unbound belongs to which? Identify your pick by its label.
RESULT: B

----------
# test_details: Cmax in blood of OFA rat model of T-cell dependent B cell response at 1 mg/kg, po QD for 4 days starting 2 days prior to immunization and measured after 24 hrs
# Format: ADME, organism-based
# Set-up: route oral, dose 1 mg/kg, time 5 day
endpoint_label: Cmax (nM)
# value in nM; strip the unit string

QUERY: Param item = `CO[C@@H](C)c1c(NC(=O)Nc2cnc(-n3nccn3)c(Cl)c2)cnc2cc(Cl)nn12` ; retrieve measured Cmax.
RESULT: 260

----------
# test_details: Cmax in blood of OFA rat model of T-cell dependent B cell response at 3 mg/kg, po QD for 4 days starting 2 days prior to immunization and measured after 24 hrs
# Format: ADME, organism-based
# Design: route oral, dose 3 mg/kg, time 5 day
endpoint_label: Cmax (nM)
# value in nM; strip the unit string

QUERY: Param item = `CO[C@@H](C)c1c(NC(=O)Nc2cnc(-n3nccn3)c(Cl)c2)cnc2cc(Cl)nn12` ; retrieve measured Cmax.
RESULT: 1000

----------
# test_details: Intrinsic clearance in human liver microsomes
# Assay type: ADME, Microsome
# experimental_conditions: read-out: CLH
endpoint_label: microsomal CLint

Worked examples follow.
{"structure_smiles_string": "COC[C@@H](C)c1c(NC(=O)Nc2cnc(-n3nccn3)c(Cl)c2)cnc2cc(Cl)nn12", "microsomal CLint": "< 25 µL/min/mg"}
{"structure_smiles_string": "O=C(Nc1cnc(-n2nccn2)c(Cl)c1)Nc1cnc2cc(Cl)nn2c1C1CC1", "microsomal CLint": "< 25 µL/min/mg"}
{"structure_smiles_string": "COCc1c(NC(=O)Nc2cnc(-n3nccn3)c(Cl)c2)cnc2cc(Cl)nn12", "microsomal CLint": "< 25 µL/min/mg"}

QUERY: Param item = `CO[C@@H](C)c1c(NC(=O)Nc2ccnc(C(F)(F)F)c2)cnc2cc(Cl)nn12` ; retrieve measured microsomal CLint.
RESULT: < 25 µL/min/mg

QUERY: // repeat for `O=C(Nc1cnc(-n2nccn2)c(Cl)c1)Nc1cnc2cc(Cl)nn2c1C1CCOCC1` and report
RESULT: < 25 µL/min/mg

QUERY: // repeat for `CO[C@@H](C)c1c(NC(=O)Nc2cnc(-n3nccn3)c(Cl)c2)cnc2cc(Cl)nn12` and report
RESULT: < 25 µL/min/mg

----------
# test_details: Apparent volume of distribution at steady state in Balb/C mouse at 1 mg/kg, iv
# Type: ADME, organism-based
# experimental_conditions: in vivo, read-out: Vdss(app)
endpoint_label: Vd (L/kg)

(A) CO[C@@H](C)c1c(NC(=O)Nc2cnc(-n3nccn3)c(Cl)c2)cnc2cc(Cl)nn12
(B) CO[C@@H](C)c1c(NC(=O)Nc2ccnc(C(F)(F)F)c2)cnc2cc(Cl)nn12
QUERY: Consider entries A and B . Which has the numerically lower Vd? Identify your pick by its label.
RESULT: A
(A: 1.4 L/kg, B: 3 L/kg)

----------
# test_details: Terminal half life in Sprague-Dawley rat at 1 mg/kg, iv
# Assay type: ADME, organism-based
# experimental_conditions: in vivo, read-out: beta t1/2 (converted)
endpoint_label: half-life (h)

{"structure_smiles_string": "CO[C@@H](C)c1c(NC(=O)Nc2cnc(-n3nccn3)c(Cl)c2)cnc2cc(Cl)nn12", "half-life (h)": 8.5}
{"structure_smiles_string": "CO[C@@H](C)c1c(NC(=O)Nc2ccnc(C(F)(F)F)c2)cnc2cc(Cl)nn12", "half-life (h)": 9.6}

----------
# test_details: Cmax in Balb/C mouse at 3 mg/kg, po
# Assay type: ADME, organism-based
# Parameters: route oral, dose 3 mg/kg
# experimental_conditions: in vivo
endpoint_label: Cmax (nM)

(a) CO[C@@H](C)c1c(NC(=O)Nc2ccnc(C(F)(F)F)c2)cnc2cc(Cl)nn12
(b) CO[C@@H](C)c1c(NC(=O)Nc2cnc(-n3nccn3)c(Cl)c2)cnc2cc(Cl)nn12
QUERY: In the pair a and b , the larger recorded Cmax belongs to which? Identify your pick by its label.
RESULT: b
(b: 1700 nM, a: 500 nM)

----------
# test_details: Clearance in rat at 1 mg/kg, iv via cassette dosing
# Type: ADME, organism-based
# experimental_conditions: in vivo
endpoint_label: clearance (mL/min/kg)

(P) CC(C)c1c(NC(=O)Nc2cnc(-n3nccn3)c(Cl)c2)cnc2cc(Cl)nn12
(Q) C[C@H]1COC[C@H](C)N1c1c(NC(=O)Nc2ccnc(C(F)(F)F)c2)cnc2cc(Cl)nn12
QUERY: In the pair P and Q , the larger recorded clearance belongs to which? Identify your pick by its label.
RESULT: Q
(Q: 46 mL/min/kg, P: 18 mL/min/kg)
